target: Neu5Ac9Ac(a2-6)Gal(b1-4)GlcNAc; assay: glycan array binding signal (z-score within array); higher = stronger binding; conditions: glycan notation: IUPAC condensed, linker removed
The entries come from a sample that favours the strongest signals as a whole.
Answer each item with its documented glycan array binding signal (z-score).
Answers are plain numbers.

// below: answered binders
1. Epa8 (Candida glabrata) (protein) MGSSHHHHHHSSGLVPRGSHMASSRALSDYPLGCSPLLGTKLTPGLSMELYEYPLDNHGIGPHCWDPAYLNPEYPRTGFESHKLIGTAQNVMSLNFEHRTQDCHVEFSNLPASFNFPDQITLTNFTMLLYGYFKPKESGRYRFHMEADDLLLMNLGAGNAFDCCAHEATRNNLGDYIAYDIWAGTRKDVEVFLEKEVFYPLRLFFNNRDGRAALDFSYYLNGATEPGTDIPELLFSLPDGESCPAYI; -0.4
2. SSR2 (Sclerotium rolfsii) (protein) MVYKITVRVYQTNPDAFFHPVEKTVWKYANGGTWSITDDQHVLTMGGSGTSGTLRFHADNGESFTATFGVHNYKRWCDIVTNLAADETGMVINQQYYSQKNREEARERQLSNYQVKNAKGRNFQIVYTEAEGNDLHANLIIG; -0.291

API: the following record is the query input.
In: Any idea what glycan array binding signal (z-score) was measured for CV-IIL (Chromobacterium violaceum) (protein) AQQGVFTLPARINFGVTVLVNSAATQHVEIFVDNEPRAAFSGVGTGDNNLGTKVINSGSGNVRVQITANGRQSDLVSSQLVLANKLNLAVVGSEDGTDMDYNDSIVILNWPLG ?
Out: -0.502
